# protocol_text: solvent given as SMILES
# setup_conditions: in ClCCl
readout: emission maximum (nm)

- compound: "COc1cc(/C=C/c2ncc(-c3ccncc3)o2)cc(OC)c1OC"
  value_reported: 463
- compound: "CCCCC1C(=O)c2cc(Oc3ccc(C(C)(C)C)cc3)c3c4c(Oc5ccc(C(C)(C)C)cc5)cc5c6c(cc(Oc7ccc(C(C)(C)C)cc7)c(c7c(Oc8ccc(C(C)(C)C)cc8)cc(c2c37)C1=O)c64)C1=C(C5=O)c2ccc3ccccc3[n+]2[B-](F)(F)O1 (stereo not given)"
  value_reported: 655
- compound: "COc1cc(N(c2ccccc2)c2ccccc2)ccc1C=C(C#N)C#N"
  value_reported: 590
- compound: "F[B-]12OC(c3ccccc3)=Nc3cccc([n+]31)N=C(c1ccccc1)O2"
  value_reported: 456
- compound: "N#CSC1=CC2=C(c3ccccc3)c3ccc(N4CCOCC4)n3[B-](F)(F)[N+]2=C1N1CCOCC1"
  value_reported: 603

I. CN(C)c1ccc(C#Cc2cc(C#Cc3ccc(N(C)C)cc3)c3ccc4c(C#Cc5ccc(C(F)(F)F)cc5)cc(C#Cc5ccc(N(C)C)cc5)c5ccc2c3c54)cc1
II. COc1ccc(-c2cc(-c3ccc(C(F)(F)F)cc3)nn2C)cc1
Exercise: Pick one, I or II : lowest reported emission maximum. Kindly state the label of the option you pick.
Key: II
(II: 367 nm, I: 576 nm)

====

# protocol_text: solvent given as SMILES
# setup_conditions: in ClCCl
readout: emission maximum (nm)

Example entries and their recorded answers appear below.
- compound: "CCCSC1=[N+]2C(=C(c3ccccc3)c3ccc(SCCC)n3[B-]2(F)F)C=C1SC#N"
  value_reported: 586
- compound: "COCCOCCOCCOCC(COCCOCCOCCOC)Oc1cc(/C=C/c2ccc(/C=C(\\C#N)c3ccncc3)cc2)c(OC(COCCOCCOCCOC)COCCOCCOCCOC)cc1/C=C/c1ccc(/C=C(\\C#N)c2ccncc2)cc1"
  value_reported: 574
- compound: "CCOC(=O)COc1ccc(/C=C/c2c(CC)c(C)c3n2[B-](F)(F)[N+]2=C(c4[nH]c(C)c(CC)c4C)c4ccccc4C2=C3C)cc1"
  value_reported: 714

A. CCOC(=O)c1ccc(O)c(-c2[nH]c(=O)n3c2-c2ccccc2C3=O)c1
B. CC(C)(C)c1cc(-c2c3cc(c(-c4cc(C(C)(C)C)cc(C(C)(C)C)c4)c4ccc([nH]4)c(-c4ccc([N+](=O)[O-])cc4)c4nc(c(-c5ccc([N+](=O)[O-])cc5)c5ccc2[nH]5)C=C4)N=C3)cc(C(C)(C)C)c1
Exercise: Pick one, A or B : lowest reported emission maximum. Kindly state the label of the option you pick.
Key: A

P. COc1ccc(-c2cc3c(ccc(=O)n3C)s2)cc1
Q. CCOC(=O)c1[nH]c(C)c(/C=C/C2=[N+]3C(=C(c4cc(OC)cc(OC)c4)c4c(C)c(I)c(/C=C/c5c(C)[nH]c(C(=O)OCC)c5C)n4[B-]3(F)F)C(C)=C2I)c1C
Exercise: Pick one, P or Q : lowest reported emission maximum. Kindly state the label of the option you pick.
Key: P

====

# protocol_text: solvent given as SMILES
# setup_conditions: in CO
readout: emission maximum (nm)

- compound: "CC1(C)Oc2c(c3nc4ccccc4nc3c3ccccc23)CC1Br (stereo unspecified)"
  value_reported: 475.96
- compound: "CN(C)CCN(Cc1c2ccccc2c(CN(CCN(C)C)c2ccc([N+](=O)[O-])cc2[N+](=O)[O-])c2ccccc12)c1ccc([N+](=O)[O-])cc1[N+](=O)[O-]"
  value_reported: 389
- compound: "CC1=[N+]2C(=C(c3ccc(N(C)C)cc3)c3ccc(C)n3[B-]2(F)F)C=C1"
  value_reported: 511
- compound: "COc1ccc(C(=O)/C=C2\\C(=O)Nc3ccccc32)cc1"
  value_reported: 380
- compound: "CCOC(=O)C1=CN(c2ccccc2)C=CC1c1ccccc1 (stereo unspecified)"
  value_reported: 442
- compound: "CCC1=C(C)C2=C(C)c3c(I)c(I)cn3[B-](F)(F)[N+]2=C1C"
  value_reported: 533.5
